# Lookup of reported IC50 keyed by entry
test system: Capan-1 pancreatic carcinoma cells; assay: Sulforhodamine B cytotoxicity, Capan-1; assay type: cell-based; settings: Table 7, Capan-1; read-out: Cytotoxicity (IC50)
# unit: µM | format: bare number

COMPOUND | UNIT NAME | REPORTED RESULT
CC(COC(=O)N1c2ccccc2C23OC24CCCC3C#CC=CC#CC14)S(=O)(=O)c1ccccc1 (centres unmarked) [Compound 427] | µM | 3.1

Enquiry: Give recorded IC50 with Capan-1 pancreatic carcinoma cells for the following compound: CC(COC(=O)N1c2ccccc2C23OC24CCCC3C#CC=CC#CC14)S(=O)(=O)c1ccccc1 (centres unmarked) [Compound 428]
Return: 6.3

These data points were gathered from patent US5281710A.
